Test system: Saccharomyces cerevisiae
Assay: protein stability index of tFT-peptide fusion in deletion strain of DAS1 (PSI (0-1 scale)); higher = more stable (slower turnover)
Catalogue of sequences with associated protein stability index
// print number alone

Check out these entries, answers already filled in.
{"columns": ["sequenceRecord", "protein stability index"],
 "data": [
  ["KKHAKGQKQKIN", 0.565],
  ["CTSCGYKWRTNN", 0.659],
  ["VSLAASFWRVVG", 0.676],
  ["LLVYLSCVACIN", 0.0429]
]}

For record ASLAASFWRVVG the listed protein stability index is 0.695

For record PDKRNHIIKLLN the listed protein stability index is 0.57

For record CTSCGYKHRTNN the listed protein stability index is 0.687

For record WTSCGYKFRTNN the listed protein stability index is 0.699

====

Test system: Saccharomyces cerevisiae
Assay: protein stability index of tFT-peptide fusion (C-terminal peptide) (PSI (0-1 scale)); higher = more stable (slower turnover)
Details: genetic background: wild type; temperature: 30 C
measurementType: protein stability index

{"columns": ["sequenceRecord", "protein stability index"],
 "data": [
  ["PEEGQNASVRPC", 0.694]
]}

For record RRKYIFRMIYPR the listed protein stability index is 0.658

For record LPLPVPSLPSAP the listed protein stability index is 0.728

For record PPTPSPATSPPP the listed protein stability index is 0.713

For record ADRTLLLKQWYG the listed protein stability index is 0.682

For record PLCLLLLNPPTL the listed protein stability index is 0.682

For record GGRLGRGAKGRV the listed protein stability index is 0.669

For record HPTSPDPLVTPL the listed protein stability index is 0.737

For record GEGGGAGGLEWG the listed protein stability index is 0.687

For record ASRCEVGVRWGG the listed protein stability index is 0.683

For record RIEIVDVQFLWE the listed protein stability index is 0.7

For record IALPPPGILDSA the listed protein stability index is 0.683

For record FVYHGLVGKRMV the listed protein stability index is 0.666

For record SLHVSSLPYALQ the listed protein stability index is 0.662

For record NKKVRSKRKEMN the listed protein stability index is 0.637

====

System: Saccharomyces cerevisiae
Test: protein stability index of tFT-peptide fusion (C-terminal peptide) (PSI (0-1 scale)); higher = more stable (slower turnover)
Conditions: genetic background: das1 deletion; temperature: 37 C
Class (by protein stability index) -- lower (below 0.5), middle (0.5 to below 0.6), upper (0.6 or more)

Examples with answers:
{"columns": ["sequenceRecord", "classification"],
 "data": [
  ["LSLVYFAALFSF", "middle"],
  ["SCCLLICIFFIF", "lower"],
  ["VSVFSLFLFLRV", "lower"],
  ["RSKLGVLVILWF", "lower"],
  ["SVVFFYPPIFHA", "upper"],
  ["YQKIARVSLAVS", "middle"],
  ["FLCLFFLAVIKL", "lower"],
  ["LYIQWVSRWSVQ", "upper"],
  ["VFKLGWVLCVLL", "lower"],
  ["SPPSFPPLLLLS", "upper"]
]}

Input line: Band assignment needed for ETQKEKRENAKP please.
Output line: upper

Input line: Band assignment needed for CLFSPFCFILFC please.
Output line: lower

Input line: Band assignment needed for VGAVGVCILFVW please.
Output line: lower

Input line: Band assignment needed for KKKKKKKIKIMS please.
Output line: upper

Input line: Band assignment needed for VFRLLLFFVFVF please.
Output line: lower

Input line: Band assignment needed for KYQVIILQTRKI please.
Output line: upper

Input line: Band assignment needed for CSYPTLSMYSTT please.
Output line: upper

Input line: Band assignment needed for WVRLWGVLEAQG please.
Output line: lower

Input line: Band assignment needed for HSRALLPYLSYH please.
Output line: upper

Input line: Band assignment needed for LLSFSQLGYFVL please.
Output line: upper

Input line: Band assignment needed for EKKRERQKGEME please.
Output line: upper

Input line: Band assignment needed for RFHTFVFCLLCL please.
Output line: middle

Input line: Band assignment needed for GFRVTTCASWIC please.
Output line: upper

Input line: Band assignment needed for GWGVFFVMRIQV please.
Output line: lower

Input line: Band assignment needed for PYPPTSLPPTWQ please.
Output line: upper

Input line: Band assignment needed for YFLFLRLVFLFF please.
Output line: lower

Input line: Band assignment needed for GGLFRWCVWRIV please.
Output line: upper

Input line: Band assignment needed for RSYAYIIVATVA please.
Output line: lower

Input line: Band assignment needed for FILSLSFVFSRP please.
Output line: lower

Input line: Band assignment needed for FVRSVFFCVSVG please.
Output line: middle

Input line: Band assignment needed for FCSFSWFLFLRS please.
Output line: lower

src = the supplement of paper PMC10724198
